Listed here: items and their measured relative viability.
- Tested on: NCI-H1993
- procedure.text: relative viability (nuclei count vs DMSO), 5 days (fraction); higher = more cells survive
- test.conditions: first compound 0.1265 µM

compound: Cc1sc2c(c1C)C(c1ccc(Cl)cc1)=N[C@@H](CC(=O)OC(C)(C)C)c1nnc(C)n1-2 [JQ1] + CC1(C)CCC(c2ccc(Cl)cc2)=C(CN2CCN(c3ccc(C(=O)NS(=O)(=O)c4ccc(N[C@H](CCN5CCOCC5)CSc5ccccc5)c(S(=O)(=O)C(F)(F)F)c4)cc3)CC2)C1 [Navitoclax] (partner 0.5 µM)
relative viability: 0.811
//
compound: Cc1sc2c(c1C)C(c1ccc(Cl)cc1)=N[C@@H](CC(=O)OC(C)(C)C)c1nnc(C)n1-2 [JQ1] + Cc1cc(Nc2cc(N3CCN(C)CC3)nc(Sc3ccc(NC(=O)C4CC4)cc3)n2)n[nH]1 [Tozasertib] (partner 0.1 µM)
relative viability: 0.62
//
compound: Cc1sc2c(c1C)C(c1ccc(Cl)cc1)=N[C@@H](CC(=O)OC(C)(C)C)c1nnc(C)n1-2 [JQ1] + O=C(CCCCCCC(=O)Nc1ccccc1)NO [Vorinostat] (partner 1 µM)
relative viability: 0.785
//
compound: Cc1sc2c(c1C)C(c1ccc(Cl)cc1)=N[C@@H](CC(=O)OC(C)(C)C)c1nnc(C)n1-2 [JQ1] + CC(=O)c1c(C)c2cnc(Nc3ccc(N4CCNCC4)cn3)nc2n(C2CCCC2)c1=O [Palbociclib] (partner 0.5 µM)
relative viability: 0.734
//
compound: Cc1sc2c(c1C)C(c1ccc(Cl)cc1)=N[C@@H](CC(=O)OC(C)(C)C)c1nnc(C)n1-2 [JQ1] + COc1cccc2cc(-c3nc([C@H]4CC[C@H](C(=O)O)CC4)n4ncnc(N)c34)[nH]c12 [OSI-027] (partner 0.5 µM)
relative viability: 0.608

* * *

Listed here: items and their measured relative viability.
- Test system: SW 900
- procedure.text: relative viability (nuclei count vs DMSO), 5 days (fraction); higher = more cells survive
- test.conditions: first compound 0.4 µM

compound: Cc1sc2c(c1C)C(c1ccc(Cl)cc1)=N[C@@H](CC(=O)OC(C)(C)C)c1nnc(C)n1-2 [JQ1] + Nc1nc2[nH]cc(CCc3ccc(C(=O)N[C@@H](CCC(=O)O)C(=O)O)cc3)c2c(=O)[nH]1 [Pemetrexed] (partner 0.2 µM)
relative viability: 0.349
//
compound: Cc1sc2c(c1C)C(c1ccc(Cl)cc1)=N[C@@H](CC(=O)OC(C)(C)C)c1nnc(C)n1-2 [JQ1] + CC(=O)Nc1cccc(-n2c(=O)n(C3CC3)c(=O)c3c(Nc4ccc(I)cc4F)n(C)c(=O)c(C)c32)c1 [Trametinib] (partner 0.02 µM)
relative viability: 0.532

* * *

- System: SW 1573
- procedure.text: relative viability (nuclei count vs DMSO), 5 days (fraction); higher = more cells survive
- test.conditions: first compound 2.53 µM
Class (required): determined from relative viability; valid ranges are low = under 0.3, mid = from 0.3 up to 0.8, high = 0.8 and over

compound: Cc1cnc(-c2cnc(NCCNc3ccc(C#N)cn3)nc2-c2ccc(Cl)cc2Cl)[nH]1 + O=C(c1cc(Cc2n[nH]c(=O)c3ccccc23)ccc1F)N1CCN(C(=O)C2CC2)CC1 [Olaparib] (partner 8 µM)
subject.of.test: SW 1573
label.value: low
--
compound: Cc1cnc(-c2cnc(NCCNc3ccc(C#N)cn3)nc2-c2ccc(Cl)cc2Cl)[nH]1 + Nc1nc2[nH]cc(CCc3ccc(C(=O)N[C@@H](CCC(=O)O)C(=O)O)cc3)c2c(=O)[nH]1 [Pemetrexed] (partner 0.2 µM)
subject.of.test: SW 1573
label.value: mid
--
compound: Cc1cnc(-c2cnc(NCCNc3ccc(C#N)cn3)nc2-c2ccc(Cl)cc2Cl)[nH]1 + C[C@@H](Oc1cc(-c2cnn(C3CCNCC3)c2)cnc1N)c1c(Cl)ccc(F)c1Cl [Crizotinib] (partner 1 µM)
subject.of.test: SW 1573
label.value: mid
--
compound: Cc1cnc(-c2cnc(NCCNc3ccc(C#N)cn3)nc2-c2ccc(Cl)cc2Cl)[nH]1 + CS(=O)(=O)N1CCN(Cc2cc3nc(-c4cccc5[nH]ncc45)nc(N4CCOCC4)c3s2)CC1 [Pictilisib] (partner 1 µM)
subject.of.test: SW 1573
label.value: mid
--
compound: O=c1[nH]c2ccccc2n1C1CCN(CCCC(c2ccc(F)cc2)c2ccc(F)cc2)CC1 [Pimozide] + Cc1nc(Nc2ncc(C(=O)Nc3c(C)cccc3Cl)s2)cc(N2CCN(CCO)CC2)n1 [Dasatinib] (partner 0.075 µM)
subject.of.test: SW 1573
label.value: mid
--
compound: O=c1[nH]c2ccccc2n1C1CCN(CCCC(c2ccc(F)cc2)c2ccc(F)cc2)CC1 [Pimozide] + C[C@]1(O)C[C@@H](c2nc(-c3ccc4ccc(-c5ccccc5)nc4c3)c3c(N)nccn32)C1 [Linsitinib] (partner 1 µM)
subject.of.test: SW 1573
label.value: mid
--
compound: Cc1cnc(-c2cnc(NCCNc3ccc(C#N)cn3)nc2-c2ccc(Cl)cc2Cl)[nH]1 + CC(C)C[C@H](NC(=O)[C@H](Cc1ccccc1)NC(=O)c1cnccn1)B(O)O [Bortezomib] (partner 0.002 µM)
subject.of.test: SW 1573
label.value: high
--
compound: Cc1cnc(-c2cnc(NCCNc3ccc(C#N)cn3)nc2-c2ccc(Cl)cc2Cl)[nH]1 + CS(=O)(=O)CCNCc1ccc(-c2ccc3ncnc(Nc4ccc(OCc5cccc(F)c5)c(Cl)c4)c3c2)o1 [Lapatinib] (partner 2 µM)
subject.of.test: SW 1573
label.value: high
--
compound: O=c1[nH]c2ccccc2n1C1CCN(CCCC(c2ccc(F)cc2)c2ccc(F)cc2)CC1 [Pimozide] + CCNC(=O)c1noc(-c2cc(C(C)C)c(O)cc2O)c1-c1ccc(CN2CCOCC2)cc1 [Luminespib] (partner 0.01 µM)
subject.of.test: SW 1573
label.value: low
